// data source = patent US20060093617A1

- targetOfAssay: HLA-A0301 (human)
- testDescription: competition vs 125I-labelled probe peptide, purified soluble HLA
pKi: −log10 of the molar value.
experimentalReadout: pKi

[[record]]
binder = "YLFNWAVRTK (modifications not checked) […]"
experimentalreadout = "pKi"
result = "> 6.00"

